Source listed as patent US20260242478A1.

SYSTEM_UNDER_TEST: T1, PSMA Fab (006 PSMA Fab) (biotinylated (site not stated))
T1 construct: Biotinylated PSMA Fab captured on neutravidin coated plates in the phage ELISA; also called Anti-PSMA Fab; anti-PSMA Fab
EXPERIMENT_NOTES: clonal phage supernatant on biotinylated PSMA Fab captured on neutravidin plate, anti-M13-HRP detection;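 also: before phage were added, wells received PSMA antigen in blocking buffer or blocking buffer alone, with no wash in between, followed by a short phage incubation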
Where no end group is shown, it is not given here.
Reported Phage binding ELISA signal, Anti-PSMA Fab values follow for various binders

Use the examples below as a reference point.
BINDER	RESULT
TDRVCTPAWMCQGL (not shown: pIII filament protein of the bacteriophage) [Phage-3708]	1.43
EIPLCRPEWMCTGL (not shown: pIII filament protein of the bacteriophage) [Phage-3706]	1.43
IAFRCVPEWMCSAF (cysteine pairing not given here; also: displayed on phage as pIII fusion, not shown: pIII filament protein of the bacteriophage) [Phage-3711]	1.43
EHIRCQPSWMCWGF (cysteine pairing not given here; also: displayed on phage as pIII fusion, not shown: pIII filament protein of the bacteriophage) [Phage-3709]	1.43

With those in mind, consider the next binder.
**Q:** Tell me the measured Phage binding ELISA signal, Anti-PSMA Fab of LEGMCKPAWMCTGF (cysteine pairing not given here; also: displayed on phage as pIII fusion, not shown: pIII filament protein of the bacteriophage) [Phage-3713] , please.
**A:** 1.42
